Assay: NCI Yeast Anticancer Drug Screen. Data for the bub3 strain (AID 167)
Conditions: S. cerevisiae bub3 mutant strain, active compounds read high; at 50.0 µM unless noted
Compounds without any hit were thinned out: in the full panel of roughly 79,000, 15% have a hit. Active and inactive are the calls of the source. No stated cut-off is given here; in the data, active means growth inhibition above about 70%; inactive means the rest.
Kindly state growth inhibition for each of the entries shown.

Input line: Identify the reported growth inhibition for the following entry. Cc1ccc(C2OC3=C(Nc4ccc([N+](=O)[O-])cc4N3)C2=O)cc1 (stereo unspecified)
Output line: -4.35% (inactive)

Input line: Identify the reported growth inhibition for the following entry. O=C1c2c(ccc3c2CCCC3)CC1Cc1ccc2c(c1)CCCC2 (stereo unspecified)
Output line: -17.4% (inactive)

Input line: Identify the reported growth inhibition for the following entry. CCOc1c(N=Nc2ccc(Cl)cc2Cl)c(C)nn1C(=S)SC
Output line: -0.45% (inactive)

Input line: Identify the reported growth inhibition for the following entry. NC1CCC(C2CCC(N)CC2)CC1 (stereo unspecified)
Output line: -6.45% (inactive)

Input line: Identify the reported growth inhibition for the following entry. COc1ccc(C(=O)/C=C/N)c(OC)c1
Output line: 9.35% (inactive)

Input line: Identify the reported growth inhibition for the following entry. CC1=CCC2C(C)(C)CCCC2(C)C1COC1OC(OCC2C(C)=CCC3C(C)(C)CCCC23C)C2C1=CCC1C(C)(C)CCCC21C (stereo unspecified)
Output line: 89.2% (active)

Input line: Identify the reported growth inhibition for the following entry. COCCN(CCOC)C(=O)Nc1ccc(Cl)cc1
Output line: 0.8% (inactive)

Input line: Identify the reported growth inhibition for the following entry. O=c1/c(=C/c2ccccc2[N+](=O)[O-])sc2nc3ccccc3n12
Output line: -21.9% (inactive)

Input line: Identify the reported growth inhibition for the following entry. CC(C)(C)NC(=O)CCCl
Output line: 1.8% (inactive)

Input line: Identify the reported growth inhibition for the following entry. O=c1oc(-c2ccccc2CCl)nc2ccccc12
Output line: -13.8% (inactive)

Input line: Identify the reported growth inhibition for the following entry. COc1ccc(-c2oc(=O)cc(-c3ccccc3)c2-c2ccccc2)cc1
Output line: -3.55% (inactive)

From: PubChem BioAssay (NCI)
